B1: Zinc finger homeobox protein 4, residues 2086 to 2141; numbered along this chain, Q86UP3 (parent)
chain: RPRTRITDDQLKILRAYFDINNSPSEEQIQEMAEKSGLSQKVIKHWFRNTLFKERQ

Variants of: B1
Assay: abundance fitness (aPCA) (normalised: wild type 0, dead -1); higher = more abundant; growth selection in yeast, the domain comes from the species named
Conditions: Homo sapiens
PARAMETER: abundance fitness
In your answer, state the number alone without any accompanying words.

Below, each entry is followed by its recorded abundance fitness result.
V42P
-0.478
Q30D
-0.495
W46N
-0.762
I43S
-0.994
V42I
-0.057

Fill in: abundance fitness of "L38D" is ___
-0.765

Same question, "E54A" this time
-0.082

Same question, "L51V" this time
0.04

Same question, "L38K" this time
-0.938

Same question, "E27A" this time
0.076

Same question, "L38I" this time
-0.217
